B1: PWWP2B (parent)
chain: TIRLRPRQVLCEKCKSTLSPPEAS

- Variants of: B1
- METHOD NOTES: protein stability index of a GFP-peptide fusion (GPS, HEK-293T) (PSI 1-6); higher = more stable;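 also: lentivirally expressed fusions sorted by FACS into six bins by GFP to DsRed ratio, PSI derived from sequencing read proportions per bin multiplied by bin number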
- PROTOCOL CONDITIONS: c terminus: a fixed tail appended
Below: a set of entries, each annotated with reported protein stability index.

>  <MUTATION KEY>
R3I

>  <protein stability index>
3.04

$$$$
>  <MUTATION KEY>
R3G

>  <protein stability index>
3.09

$$$$
>  <MUTATION KEY>
C11A

>  <protein stability index>
3.06

$$$$
